Test system: Enterococcus faecalis
Test: Tested in vitro for antibacterial activity agains Enterococcus faecalis (IID 682)
Type: functional
MIC by entry:
Write it as a number; the unit µg/mL goes unstated.

In the examples that follow, each entry is paired with its recorded MIC.
compound	MIC / µg/mL
CN1CCN(c2c(F)cc3c(=O)c(C(=O)O)c4n5c3c2OCC5CS4)CC1.Cl (centres undefined)	0.78
CN1CCN(c2c(F)cc3c(=O)c(C(=O)O)c4n5c3c2N(C)CC5CS4)CC1.Cl (centres undefined)	1.56
CN1CCN(c2c(F)cc3c(=O)c(C(=O)O)c4n5c3c2SCC5CO4)CC1.Cl (centres undefined)	6.25

Request: # input compound: CN1CCN(c2c(F)cc3c(=O)c(C(=O)O)c4n5c3c2C(=O)CC5CS4)CC1.Cl (centres undefined) ; wanted: its MIC
Result: 3.13

====

Test system: Klebsiella pneumoniae
Experiment: Tested in vitro for antibacterial activity against Klebsiella pneumoniae (B54)
Assay type: functional
reported_endpoint: MIC (µg/mL)
Write it as a number; the unit µg/mL goes unstated.

In the examples that follow, each entry is paired with its recorded MIC.
molecule	measured_on	unit	MIC
CN1CCN(c2c(F)cc3c(=O)c(C(=O)O)c4n5c3c2N(C)CC5CS4)CC1.Cl (centres undefined)	Klebsiella pneumoniae	µg/mL	0.39
CN1CCN(c2c(F)cc3c(=O)c(C(=O)O)c4n5c3c2OCC5CS4)CC1.Cl (centres undefined)	Klebsiella pneumoniae	µg/mL	0.05
CN1CCN(c2c(F)cc3c(=O)c(C(=O)O)c4n5c3c2C(=O)CC5CS4)CC1.Cl (centres undefined)	Klebsiella pneumoniae	µg/mL	0.78

Lab note: next molecule to report on.
Request: # input molecule: CN1CCN(c2c(F)cc3c(=O)c(C(=O)O)c4n5c3c2SCC5CO4)CC1.Cl (centres undefined) ; wanted: its MIC
Result: 1.56
